# test method notes: physchem
# Format: physicochemical
# condition parameters: aqueous buffer, thermodynamic from solid; 50 mM phosphate buffer (pH 6.5), room temperature (20° C.); read-out: Water solubility
value type: solubility at 2 h

[[record]]
structure_smiles_string = "C#Cc1ccc(Nc2c(C(=O)NOCCO)cc(CNOCC(C)(C)O)c(F)c2F)c(F)c1"
value_type = "solubility at 2 h"
measured = "237 µM"

[[record]]
structure_smiles_string = "C#Cc1ccc(Nc2c(C(=O)NOCCO)cc(CN3OCCC3=O)c(F)c2F)c(F)c1"
value_type = "solubility at 2 h"
measured = "95 µM"

[[record]]
structure_smiles_string = "CC(=O)NCCONCc1cc(C(=O)NOCCO)c(Nc2ccc(I)cc2F)c(F)c1F"
value_type = "solubility at 2 h"
measured = "582 µM"

[[record]]
structure_smiles_string = "CON(Cc1cc(C(=O)NOCCO)c(Nc2ccc(I)cc2F)c(F)c1F)C(=O)CO"
value_type = "solubility at 2 h"
measured = "509 µM"

[[record]]
structure_smiles_string = "O=C(NOCCO)c1cc(COCCCO)c(F)c(F)c1Nc1ccc(I)cc1F"
value_type = "solubility at 2 h"
measured = "519 µM"

[[record]]
structure_smiles_string = "CC(C)(O)CONCc1cc(C(=O)NOCCO)c(Nc2ccc(I)cc2F)c(F)c1F"
value_type = "solubility at 2 h"
measured = "206 µM"

[[record]]
structure_smiles_string = "CCC(=O)NCCONCc1cc(C(=O)NOCCO)c(Nc2ccc(I)cc2F)c(F)c1F"
value_type = "solubility at 2 h"
measured = "427 µM"

[[record]]
structure_smiles_string = "CC(C)C(=O)NCCONCc1cc(C(=O)NOCCO)c(Nc2ccc(I)cc2F)c(F)c1F"
value_type = "solubility at 2 h"
measured = "219 µM"


Data credit: patent US8575391B2
